// provenance: patent US20230414780A1

Molecular target: T1, mouse transferrin receptor (mTfR) fused to EGFP, on CHO cells (mouse, UniProt Q62351 1-763)
T1 construct: whole, on cells; also called mouse TfR; CHO-mTfR-EGFP; not shown: EGFP
T1 sequence (Q62351 whole entry, the tested form may be a part): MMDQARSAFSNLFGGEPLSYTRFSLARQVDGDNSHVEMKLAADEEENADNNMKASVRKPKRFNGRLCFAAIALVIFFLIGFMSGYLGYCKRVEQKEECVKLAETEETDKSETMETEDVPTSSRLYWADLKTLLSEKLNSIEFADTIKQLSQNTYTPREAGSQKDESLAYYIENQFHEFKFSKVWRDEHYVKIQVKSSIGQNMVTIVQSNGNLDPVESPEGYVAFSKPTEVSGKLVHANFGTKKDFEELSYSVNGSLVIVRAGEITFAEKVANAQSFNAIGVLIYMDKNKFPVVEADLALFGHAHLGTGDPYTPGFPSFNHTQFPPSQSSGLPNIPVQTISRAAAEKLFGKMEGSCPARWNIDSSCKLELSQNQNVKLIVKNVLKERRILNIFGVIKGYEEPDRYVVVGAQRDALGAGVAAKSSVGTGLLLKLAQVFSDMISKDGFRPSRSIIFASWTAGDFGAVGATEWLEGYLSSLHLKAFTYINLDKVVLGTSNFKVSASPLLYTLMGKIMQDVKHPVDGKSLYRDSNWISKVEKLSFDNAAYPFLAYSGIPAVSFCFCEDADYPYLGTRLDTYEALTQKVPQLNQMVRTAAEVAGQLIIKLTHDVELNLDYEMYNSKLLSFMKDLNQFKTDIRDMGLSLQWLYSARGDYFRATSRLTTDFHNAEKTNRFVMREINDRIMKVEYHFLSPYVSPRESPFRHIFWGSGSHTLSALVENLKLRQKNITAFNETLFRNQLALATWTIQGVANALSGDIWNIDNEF
Assay: apparent Kd, flow cytometry, CHO cells
Hi there, I'd appreciate the recorded Kd for every entry that follows.

Quickly give me recorded Kd for C5^h19 (VHH) VHH: EVQLVESGGGVVQPGGSLRLSCAASGTDFSINFIRWYRQAPGKQREFVAGFTATGNTNYADSVKGRFTISRDNAKNTLYLQMNSLRPEDTAVYYCYMLDKWGQGTQVTVSS
1030 nM

Name the recorded Kd of the binder listed here: C5^V26 (VHH) VHH: EVQLVESGGGVVQPGGSLKLSCVASGTDFSINFIRWYRQAPGKQREFVAGFTATGNTNYADSMKGRFTISRDNTKNAVYLQIDSLKPEDTAVYYCYVLDKWGQGTQVTVSS
211 nM

For the binder VHH D (H3) (VHH) VHH: EVQLVESGGGEVQPGGSLKLSCVASGTDFSINFVRWYRQRPGKQREWVAGFTANGDTNYPDSMKGRFTISRDNAKNTVYLQINSLKSEDTAVYYCYMLDNWGQGTQVTVSS , report Kd.
56 nM

Provide Kd value for the following binder: C5^V28 (VHH) VHH: EVQLVESGGGVVQPGGSLKLSCVASGADFSINFIRWYRQAPGKQREFVAGFSATGNTNYADSMKGRFTISRDNTKNAVYLQIDSLKPEDTAVYYCYMLDKWGQGTQVTVSS
160 nM

Dear colleague, please send me the reported Kd for VHH A14 (C5^V14) (VHH) VHH: EVQLVESGGGVVQPGGSLKLSCVASGTDFSINFIRWYRQAPGKQREFVAGFTATGNSNYADSMKGRFTISRDNTKNAVYLQIDSLKPEDTAVYYCYMLDKWGQGTQVTVSS when you can.
158 nM

Please list Kd recorded for the binder B8^V3 (VHH) VHH: EVQLVESGGGVVQPGGSLRLSCAASGEIFSINFMRWYREAPGKQREWVAGFTRDGSTNYPDSAKGRFTISRDNAKNTVYLQIDSLKPEDTAVYYCYMLDTWGQGTQVTVSS
52 nM

State, in one line, measured Kd of C5^h23 (VHH) VHH: EVQLVESGGGVVQPGGSLRLSCAASGTDFSINFIRWVRQAPGKQREFVAGFTATGNTNYADSVKGRFTISRDNAKNTLYLQMNSLRPEDTAVYYCYMLDKWGQGTQVTVSS
1540 nM

Please supply the value of reported Kd for the item C5^V22 (VHH) VHH: EVQLVESGGGVVQPGGSLKLSCVASGTDFSINFIRWYRQAPGKQREFVAGYTATGNTNYADSMKGRFTISRDNTKNAVYLQIDSLKPEDTAVYYCYMLDKWGQGTQVTVSS
131 nM
